system: FGFR4; details: concentration: 1 μM,replicates: in singlicate; n = 1;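 note: KINOMEscan kinase panel screen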
reportedProperty: %Inh (%)
Give bare numbers, in %.

Please review the entries below; each comes with its answer.
[
  {
    "compound": "Cc1ccc(-n2nc(C(C)(C)C)cc2NC(=O)Nc2ccc(OCCN3CCOCC3)c3ccccc23)cc1",
    "%Inh / %": 0
  },
  {
    "compound": "CN(C)CCOc1ccc(-c2cc(-c3c[nH]nc3-c3ccccn3)ccn2)cc1",
    "%Inh / %": 8
  },
  {
    "compound": "O=C(NCCCN1CCOC1=O)c1cnc(NCc2cc(Cl)ccc2Cl)nc1NC1CCCC1",
    "%Inh / %": 13
  }
]

Consider now this further molecule.
QUERY: Fill blank: measured %Inh of the molecule Cc1occc1-c1nc(N)c(OC[C@@H](N)Cc2c[nH]c3ccccc23)cc1-c1cc2c(C)n[nH]c2cn1 is ____.
RESULT: 0

---

tested on: MST3; construct: gene STK24; details: concentration: 1 μM,replicates: in singlicate; n = 1
Please respond with reported %Inh for every item in the list.
Form field: result (number plus unit)

Observe how each entry below is paired with its result.
[
  {
    "compound": "Nc1nc(Nc2ccccc2)cc(-c2ccc3c(N)n[nH]c3c2)n1 [GSK2225749]",
    "reportedProperty": "%Inh",
    "obsValue": "5%"
  },
  {
    "compound": "CN(C)CC(O)COc1ccc(Nc2nccc(-c3cnn4nc(N5CCOCC5)ccc34)n2)cc1 (stereo not shown) [GW767488]",
    "reportedProperty": "%Inh",
    "obsValue": "0%"
  },
  {
    "compound": "CC(C)Nc1cc(-c2ccc3c(N)n[nH]c3c2)nc(N)n1 [GSK2221681]",
    "reportedProperty": "%Inh",
    "obsValue": "0%"
  }
]

Okay, next one:
QUERY: Recorded %Inh of COc1ccc(C[C@@H](CN)NC(=O)c2cc(Br)c(-c3ccnc4[nH]ccc34)s2)cc1.Cl.Cl [GSK1389063] , please.
RESULT: 0%

---

test system: PIM3; conditions: concentration: 1 μM,replicates: in singlicate; n = 1
reportedProperty: %Inh (%)
One number for each entry, in %.

Below, each entry is followed by its recorded %Inh result.
[
  {
    "molecule": "Cl.Oc1cc(-c2nc(-c3ccccc3)[nH]c2-c2ccncc2)ccc1Cl [SB-386023]",
    "%Inh, %": 0
  },
  {
    "molecule": "CC(C)N1C(=O)Cc2cc(Nc3ncc(C(F)(F)F)c(NCc4cccc(S(C)(=O)=O)c4)n3)ccc21",
    "%Inh, %": 9
  },
  {
    "molecule": "Cl.Cl.NC[C@H](CC1CCCCC1)NC(=O)c1cc(Br)c(-c2ccnc3[nH]ccc23)s1 [GSK1581427]",
    "%Inh, %": 0
  },
  {
    "molecule": "CCN(CC)CCOc1ccc(Nc2ncc3cc(-c4c(Cl)cccc4Cl)c(=O)n(C)c3n2)cc1 [SB-601273]",
    "%Inh, %": 0
  },
  {
    "molecule": "CCN(CC)CCCCNc1ncc2cc(-c3c(Cl)cccc3Cl)c(NC(=O)NC(C)(C)C)nc2n1",
    "%Inh, %": 0
  }
]

// each listed molecule needs a value for %Inh
1. CC(C)Nc1cc(-c2ccc3c(N)n[nH]c3c2)nc(N)n1 [GSK2221681]
2. C=CC(=O)Nc1cc2c(Nc3ccc(F)c(Cl)c3)ncnc2cc1OCCCN1CCOCC1 [GW781483]
3. CN(C)CC(O)COc1ccc(Nc2nccc(-c3cnn4nc(N5CCOCC5)ccc34)n2)cc1 (stereo not shown) [GW767488]
4. Cl.Cl.NC[C@H](Cc1ccc(C(F)(F)F)cc1)NC(=O)c1cc(Br)c(-c2ccnc3[nH]ccc23)s1 [GSK1487252]
5. Cl.Cl.Nc1nc(-c2ccc3c(N)n[nH]c3c2)cc(N2CCCC(NC(=O)c3ccccc3)C2)n1 (stereo not shown) [GSK2286775]

RESULT:
0
0
35
0
25
